- assayed system: human TNFSF9 (hTNFSF9), full length, overexpressed on HEK293T cells (human, UniProt P41273 1-254)
- method notes: cell-based or functional assay
property measured: % live cells, Fab-saporin killing, 250 pM antibody
Respond with a number, then the unit of measure.

Reference set, count: 2
binder	readout value
SC113.35 (antibody, mouse IgG2b, V domains shown, mouse IgG2b) VH: DVQLQESGPDLVKPSQSLSLTCTVTGYSITSGYGWHWIRQFPGNKLEWMGYIDYSGNNNYNPSLKSRISITRDTSKNQLFLQLNSVTAEDTATYFCARIYYDAMDYWGQGTSVTVSS VL: DIVMTQSHKFMSTSVGERVSITCKASQDVGGAVAWYQQKPGQSPKLLIYWASTRHTGVPDRFTGSGSGTDFTLTISNVQSEDLADYFCQQYSSYPLTFGAGTKLDLK	28.5%
SC113.46 (antibody, V domains shown, mouse antibody, isotype N/A) VH: QIQLVQSGPELKKPGETVKISCKASGYSFTNYGMNWVKQTPRKGLKWVGWINTYTGETTYADDFKGRFAFSLETSASTAYLQINNLKNEDMATYFCARIYGYGWFAYWGQGTLVTVSA VL: DIQMTQSPSSLSASLGERVSLTCRASQEISGYLSWLQQKPDGTIKRLIYAASTLDSGAPKRFSGSRSGSDYSLIISSLESEDFADYYCLQYSSYPYTFGGGTKLEIK	28.3%

// next entry
**Q:** Indicate its recorded % live cells, Fab-saporin killing, 250 pM antibody; the binder in question is SC113.36 (antibody, mouse IgG1, V domains shown, mouse IgG1) VH: QVQLKESGPDLVAPSQSLSITCTVSGFSLTSYGVHWVRQPPGKGLEWLGVIWAGGFTNYNSALMSRLSISKDNSKSQVFLKMSSLQTDDTAMYYCVREKDYRYSHYFDYWGQGTTLTVSS VL: DIVMSQSPSSLAVSVGEKVTLSCKSSLSLLYSSNQENYLAWYQQKPGQSPKLLIYWASTRESGVPDRFTGSGSGTDFTLTISSVKAEDLAVYYCQQYYSYPRTFGGGTKLEIK
**A:** 17.8%
